tested on: HL-60; experiment: NCI tumour cell line growth inhibition, 48 h
Activity calls are given as the source filed them. Rule as the data show it: active = GI50 up to about 1.1 µM and inactive = higher.
In this exercise, the only acceptable responses are active, inactive

The examples below pair each entry with its known result.
CNn1c(C)n[nH]c1=O
inactive
Nc1ccc(S(=O)(=O)Nc2nc3ccccc3nc2Nc2ccc(S(N)(=O)=O)cc2)cc1
inactive
c1ccc(-c2ccc(-c3cc4ccccc4[nH]3)cc2)cc1
inactive
CN(Cc1ccccc1)c1cc(=O)n(C)c(=O)[nH]1
inactive
O=C1c2cccnc2-c2nccc3ccnc1c23
active
O=C1c2cccc(NCCCNCCO)c2C(=O)c2cccc(NCCCNCCO)c21
inactive
O=[N+]([O-])/C=C/c1cn(CCCCCCCCn2cc(/C=C/[N+](=O)[O-])c3ccccc32)c2ccccc12
inactive
CC1(C)Oc2ccccc2OC1O (stereo unspecified)
inactive

Query :: Lab log entry: CC(=O)Nc1ccc(-c2nnc(SCC(=O)Nc3cccc(C)c3)o2)cc1 — outcome as called in the assay?
Result :: inactive

Query :: Hi, do you know how C[C@@]12CCC(=O)C=C1CC[C@H]1C2=CC[C@]2(C)C1CC[C@@]2(C)O (stereo partly specified) came out in this test?
Result :: inactive

Query :: For this compound, state the assay outcome: O=c1c2ccccc2[nH]c(=S)n1-c1ccc(/N=N/c2cccc3cc(O)ccc23)cc1
Result :: inactive
